Reference source for all entries: the supplement of paper PMC10201428

The following sequences are shown together with reported relative integration efficiency (log2) values.
System: VchCAST RNA-guided transposition machinery (E. coli BL21(DE3) host, lacZ target)
Assay: relative integration efficiency (T-LR orientation) vs wild-type transposon end (log2 (normalized fold change)); transposon end mutated: right end (5 bp flank + 75 bp right end); higher = more efficient transposition
Kindly provide the number alone.

// solved cases for relative integration efficiency (log2) follow
- Residue Sequence: "ACATTTGTTGATACCACCATAAAATGGTAATTACACCCATAAATTGATAATTATCACACCCAATTTAACTATAACGCTCTGATCATAGTCAGACCAACATTGCTACGACCCGTATTCGCACCGACAC"
  Property Name: "relative integration efficiency (log2)"
  Obs Value: 2.15
- Residue Sequence: "ACATTTGTTGATACAACCATAAAAGGATCATTACCCCCATAAATTGATAATTATCACACCCAATTTAACTATAACGCTCTGATCATAGTCAGACCAACATTGCTACGACCCGTATTCGCACCGACAC"
  Property Name: "relative integration efficiency (log2)"
  Obs Value: 0.679
- Residue Sequence: "ACATTTGTTCATCCAACCATAAAATGATAATTACACCCATAAATTGATCATTATCACACCCAATTTAACTATAACGCTCTGATCATAGTCAGACCAACATTGCTACGACCCGTATTCGCACCGACAC"
  Property Name: "relative integration efficiency (log2)"
  Obs Value: 0.101
- Residue Sequence: "ACATTTGTTGATACAACCATAAAATGATAATTACCACCATAAATTGATAATTATCACACCCATAAATTGATATTGCCTCTGATCATAGTCAGACCAACATTGCTACGACCCGTATTCGCACCGACAC"
  Property Name: "relative integration efficiency (log2)"
  Obs Value: -0.372

Proceeding to the next sequence to report its relative integration efficiency (log2).
Lab note: measured relative integration efficiency (log2) of ACATTTGTTGATACAACCATAAAATGATAATTACACCCATTTATTGATAATTATCACACCCATAAATTGATATTGCCTCTGATCATAGTCAGACCAACATTGCTACGACCCGTATTCGCACCGACAC was -0.628

###

Test system: VchCAST RNA-guided transposition machinery (E. coli BL21(DE3) host, lacZ target)
Assay: relative integration efficiency (T-RL orientation) vs wild-type transposon end (log2 (normalized fold change)); transposon end mutated: right end (5 bp flank + 75 bp right end); higher = more efficient transposition
The following sequences are shown together with reported relative integration efficiency (log2) values.
Kindly provide the number alone.

- Residue Sequence: "ACATTTGTTGATACAACCATAAAATGATAATTACACCCATAAATTCTTAATTATCACACCCATAAATTGATATTGCCTCTGATCATAGTCAGACCAACATTGCTACGACCCGTATTCGCACCGACAC"
  Tested Target: "VchCAST RNA-guided transposition machinery (E. coli BL21(DE3) host, lacZ target)"
  relative integration efficiency (log2): -1.43

Proceeding to the next sequence to report its relative integration efficiency (log2).
Lab note: measured relative integration efficiency (log2) of ACATTTGTTGATACCACCATAAAATGATAATTCCACCCCTAAATTGATAATTATCACACCCAATTTAACTATAACGCTCTGATCATAGTCAGACCAACATTGCTACGACCCGTATTCGCACCGACAC was -2.92
